Hi there, I'd appreciate the recorded pKd for every entry that follows.
Target: T1, Human IL-23 no linker (human, UniProt P29460 23-328)
T1 construct: also called recombinant IL-23 without linker
T1 sequence 1: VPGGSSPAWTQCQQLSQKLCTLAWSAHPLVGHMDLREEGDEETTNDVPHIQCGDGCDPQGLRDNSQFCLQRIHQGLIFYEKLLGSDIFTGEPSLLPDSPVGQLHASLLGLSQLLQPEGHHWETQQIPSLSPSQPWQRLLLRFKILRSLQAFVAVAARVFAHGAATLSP
T1 sequence 2: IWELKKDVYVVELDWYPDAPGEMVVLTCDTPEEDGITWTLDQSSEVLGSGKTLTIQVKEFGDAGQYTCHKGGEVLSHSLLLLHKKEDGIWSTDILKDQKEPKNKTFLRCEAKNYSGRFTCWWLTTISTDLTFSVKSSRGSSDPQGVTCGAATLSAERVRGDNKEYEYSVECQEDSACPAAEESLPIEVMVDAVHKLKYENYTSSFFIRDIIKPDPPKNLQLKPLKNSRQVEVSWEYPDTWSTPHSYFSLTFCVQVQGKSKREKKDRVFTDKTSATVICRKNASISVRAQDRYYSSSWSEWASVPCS
Assay: SPR, ProteOn XPR36, global 1:1 fit
Answers are plain numbers, as −log10 of the molar value.

These solved cases illustrate the format of a correct answer.
antibody C1273 (disclosed in WO 2007/005955) (antibody, V domains shown) VH: DVNLVESGGGLVKPGGSLKLSCAASGFTFSSYTMSWVRQTPEKRLEWVATISSGGTYTYYPDSVKGRFTISRDNAKNTLYLQMSSLKSEDTAMFYCTRDNHAYDRGPFFDYWGQGATLTVSS VL: DIVMSQSPSSLVVSVGEKVTMSCKSSQNLFYRSNQKNHLAWYQQKPGQSPTLLIYWTSTRESGVPDRFTGSGSGTDFTLTISRVKAEDLAVYYCQQYYSYPPTFGGGTKLEIK
10.80
Antibody D (antibody, human IgG1, kappa, L234A L235A, V domains shown, Humanized 6B8, human IgG1-KO (L234A/L235A) / kappa; also called 6B8-IgG1KO-5 with IgK-65; 6B8CVH-05 / 6B8CVK-65) VH: QVQLVQSGAEVKKPGSSVKVSCKASGFTFTDQTIHWVRQAPGQGLEWMGYIYPRDDSPKYNENFKGKVTLTADKSTSTAYMELSSLRSEDTAVYYCAIPDRSGYAWFIYWGQGTLVTVSS VL: DIQMTQSPSSLSASVGDRVTITCKASRDVAIAVAWYQQKPGKVPKLLLFWASTRHTGVPDRFSGSGSGTDFTLTISSLQPEDLADYYCHQYSSYPFTFGQGTKLEIKR
9.87
Mouse antibody 6B8 (antibody, V domains shown, Mouse monoclonal antibody from hybridoma; also called Mouse 6B8; 6B8Vk) VH: QVQLQQSDAELVKPGTSVKTSCKISGNTFTDQTIHWMKQRPEQGLEWIGYIYPRDDSPKYNENFKGKATLTADKSSSTAYMQLNSLTSEDSAVYFCAIPDRSGYAWFIYWGQGTLVTVSS VL: DIVMTQSHKFLSTSVGDRVTITCKASRDVAIAVAWYQQKPGQSPKLLLFWASTRHTGVPDRFTGSGSRTDFTLTISNVQSEDLADYFCHQYSSYPFTFGSGTKLEIK
10.61

## Input Requested field: pKd. Item: Antibody C (antibody, human IgG1, kappa, L234A L235A, V domains shown, Humanized 6B8, human IgG1-KO (L234A/L235A) / kappa; also called 6B8-IgG1KO-2 with IgK-65; 6B8CVH-02 / 6B8CVK-65) VH: QVQLVQSGAEVKKPGSSVKVSCKASGYTFTDQTIHWMRQAPGQGLEWIGYIYPRDDSPKYNENFKGKVTITADKSTSTAYMELSSLRSEDTAVYYCAIPDRSGYAWFIYWGQGTLVTVSS VL: DIQMTQSPSSLSASVGDRVTITCKASRDVAIAVAWYQQKPGKVPKLLLFWASTRHTGVPDRFSGSGSGTDFTLTISSLQPEDLADYYCHQYSSYPFTFGQGTKLEIKR
## Output 10.44

Attribution: patent US20210317201A1
